- MEASUREMENT_NOTES: Selectivity index, ratio of GI50 for human PANC1 cells to MIC for active stage of Mycobacterium tuberculosis H37Ra ATCC 25177
- Format: toxicity
- CONDITION_SUMMARY: PANC-1 cells, read-out: Selectivity Index
READOUT_KIND: selectivity ratio

Study these solved cases before continuing.
1. COc1cc(-c2nc(SCCCn3cnc4sc5c(c4c3=O)CCCC5)n(Cc3ccccc3)c(=O)c2C#N)cc(OC)c1OC    2
2. Cc1ccc(-c2nc(S)nc(O)c2C#N)cc1    > 3
3. CCCCCCc1cc2c(=O)n(CCCSc3nc(-c4cc(OC)c(OC)c(OC)c4)c(C#N)c(=O)[nH]3)cnc2s1    1
4. CCCCCCCc1cc2c(=O)n(CCCSc3nc(-c4cc(OC)c(OC)c(OC)c4)c(C#N)c(=O)[nH]3)cnc2s1    3
5. COc1cc(-c2nc(SCCCn3cnc4sc5c(c4c3=O)CCCC5)n(CCC(F)(F)C(F)(F)C(F)(F)C(F)(F)C(F)(F)C(F)(F)F)c(=O)c2C#N)cc(OC)c1OC    > 3
6. CCCCCn1c(SCCCn2cnc3sc4c(c3c2=O)CCCC4)nc(-c2cc(OC)c(OC)c(OC)c2)c(C#N)c1=O    > 3

Below: the item to evaluate.
selectivity ratio lookup needed for CO[C@H]1/C=C/O[C@@]2(C)Oc3c(C)c(O)c4c(O)c(c(/C=N/N5CCN(C)CC5)c(O)c4c3C2=O)NC(=O)/C(C)=C\C=C\[C@H](C)[C@H](O)[C@@H](C)[C@@H](O)[C@@H](C)[C@H](OC(C)=O)[C@@H]1C , thanks.
244

---

- MEASUREMENT_NOTES: Cytotoxicity against human PANC1 cells assessed as growth inhibition by MTT assay
- Type: cell-based
- CONDITION_SUMMARY: PANC-1 cells
Listed here: items and their measured GI50.
Write it as a number; the unit µg/mL goes unstated.

1) COc1cc(-c2nc(SCCCn3cnc4sc5c(c4c3=O)CCCC5)n(Cc3ccccc3)c(=O)c2C#N)cc(OC)c1OC    51.9
2) CCCCCCc1cc2c(=O)n(CCCSc3nc(-c4cc(OC)c(OC)c(OC)c4)c(C#N)c(=O)[nH]3)cnc2s1    28.1
3) COc1cc(-c2nc(SCCCn3cnc4sc5c(c4c3=O)CCCC5)[nH]c(=O)c2C#N)cc(OC)c1OC    52.8

GI50 lookup needed for N#Cc1c(-c2ccc(O)cc2)[nH]c(=S)[nH]c1=O , thanks.
89.1

---

- MEASUREMENT_NOTES: Selectivity index, ratio of GI50 for human HeLa cells to MIC for active stage of Mycobacterium tuberculosis H37Ra ATCC 25177 infected in human THP1 cells
- Type: toxicity, cell-based
- CONDITION_SUMMARY: read-out: Selectivity Index
Listed here: items and their measured selectivity ratio.
// no unit string in output, number only

1. CCCCCCCc1cc2c(=O)n(CCSc3nc(-c4cc(OC)c(OC)c(OC)c4)c(C#N)c(=O)[nH]3)cnc2s1    7

selectivity ratio lookup needed for N#Cc1c(-c2ccc(O)cc2)[nH]c(=S)[nH]c1=O , thanks.
3

// same read-out, input: Cc1ccc(-c2nc(S)nc(O)c2C#N)cc1
2

// same read-out, input: COc1cc(-c2nc(SCCCn3cnc4sc5c(c4c3=O)CCCC5)n(S(=O)(=O)c3ccc(C)cc3)c(=O)c2C#N)cc(OC)c1OC
2

// same read-out, input: COc1cc(-c2[nH]c(=S)[nH]c(=O)c2C#N)cc(OC)c1OC
2

// same read-out, input: CCCc1cc2c(=O)n(CCCSc3nc(-c4cc(OC)c(OC)c(OC)c4)c(C#N)c(=O)[nH]3)cnc2s1
2

---

- MEASUREMENT_NOTES: Cytotoxicity against human HeLa cells assessed as growth inhibition by MTT assay
- Assay type: cell-based
READOUT_KIND: GI50 (µg/mL)
Write it as a number; the unit µg/mL goes unstated.

1. CCCCCCCc1cc2c(=O)n(CCCSc3nc(-c4cc(OC)c(OC)c(OC)c4)c(C#N)c(=O)[nH]3)cnc2s1    76.1
2. CCCCCCc1cc2c(=O)n(CCSc3nc(-c4cc(OC)c(OC)c(OC)c4)c(C#N)c(=O)[nH]3)cnc2s1    76.3

GI50 lookup needed for CCCCCCc1cc2c(=O)n(CCCSc3nc(-c4cc(OC)c(OC)c(OC)c4)c(C#N)c(=O)[nH]3)cnc2s1 , thanks.
67

---

Listed here: items and their measured GI50.
- MEASUREMENT_NOTES: Cytotoxicity against human HeLa cells assessed as growth inhibition by MTT assay
- Assay type: cell-based
Write it as a number; the unit µg/mL goes unstated.

1) N#Cc1c(-c2ccc(O)cc2)[nH]c(=S)[nH]c1=O    90.8
2) COc1cc(-c2[nH]c(=S)[nH]c(=O)c2C#N)cc(OC)c1OC    63.7
3) CCCCCc1cc2c(=O)n(CCCSc3nc(-c4cc(OC)c(OC)c(OC)c4)c(C#N)c(=O)[nH]3)cnc2s1    75.8
4) Cc1ccc(-c2nc(S)nc(O)c2C#N)cc1    67.6
5) COc1cc(-c2nc(SCCCn3cnc4sc5c(c4c3=O)CCCC5)n(C)c(=O)c2C#N)cc(OC)c1OC    70.7

Below: the item to evaluate.
GI50 lookup needed for CCCCCn1c(SCCCn2cnc3sc4c(c3c2=O)CCCC4)nc(-c2cc(OC)c(OC)c(OC)c2)c(C#N)c1=O , thanks.
73

---

- MEASUREMENT_NOTES: Selectivity index, ratio of GI50 for human PANC1 cells to MIC for active stage of Mycobacterium tuberculosis H37Ra ATCC 25177
- Format: toxicity
- CONDITION_SUMMARY: PANC-1 cells, read-out: Selectivity Index
Listed here: items and their measured selectivity ratio.

1. C#CCn1c(SCCCn2cnc3sc4c(c3c2=O)CCCC4)nc(-c2cc(OC)c(OC)c(OC)c2)c(C#N)c1=O    > 3

selectivity ratio lookup needed for COc1cc(-c2nc(SCCCn3cnc4sc5c(c4c3=O)CCCC5)n(S(=O)(=O)c3ccc(C)cc3)c(=O)c2C#N)cc(OC)c1OC , thanks.
> 3

---

- MEASUREMENT_NOTES: Selectivity index, ratio of GI50 for human PANC1 cells to MIC for dormant stage of Mycobacterium tuberculosis H37Ra ATCC 25177
- Type: toxicity
- CONDITION_SUMMARY: PANC-1 cells, read-out: Selectivity Index
READOUT_KIND: selectivity ratio

1. COc1cc(-c2nc(SCCCn3cnc4sc5c(c4c3=O)CCCC5)n(CCCn3cnc4sc5c(c4c3=O)CCCC5)c(=O)c2C#N)cc(OC)c1OC    > 3
2. CCCCCCCCCCCn1c(SCCCn2cnc3sc4c(c3c2=O)CCCC4)nc(-c2cc(OC)c(OC)c(OC)c2)c(C#N)c1=O    > 3
3. CO[C@H]1/C=C/O[C@@]2(C)Oc3c(C)c(O)c4c(O)c(c(/C=N/N5CCN(C)CC5)c(O)c4c3C2=O)NC(=O)/C(C)=C\C=C\[C@H](C)[C@H](O)[C@@H](C)[C@@H](O)[C@@H](C)[C@H](OC(C)=O)[C@@H]1C    208

selectivity ratio lookup needed for COc1cc(-c2[nH]c(=S)[nH]c(=O)c2C#N)cc(OC)c1OC , thanks.
> 6

// same read-out, input: N#Cc1c(-c2ccc(O)cc2)[nH]c(=S)[nH]c1=O
< 3

---

- MEASUREMENT_NOTES: Cytotoxicity against human A549 cells assessed as growth inhibition by MTT assay
- Type: cell-based
Listed here: items and their measured GI50.

Study these solved cases before continuing.
1) CCCCCCc1cc2c(=O)n(CCCSc3nc(-c4cc(OC)c(OC)c(OC)c4)c(C#N)c(=O)[nH]3)cnc2s1    90.2 µg/mL
2) CCCCCCc1cc2c(=O)n(CCSc3nc(-c4cc(OC)c(OC)c(OC)c4)c(C#N)c(=O)[nH]3)cnc2s1    96.8 µg/mL
3) C#CCn1c(SCCCn2cnc3sc4c(c3c2=O)CCCC4)nc(-c2cc(OC)c(OC)c(OC)c2)c(C#N)c1=O    > 100 µg/mL

Below: the item to evaluate.
GI50 lookup needed for COc1cc(-c2nc(SCCCn3cnc4sc5c(c4c3=O)CCCC5)n(C)c(=O)c2C#N)cc(OC)c1OC , thanks.
95.7 µg/mL

---

- MEASUREMENT_NOTES: Cytotoxicity against human PANC1 cells assessed as growth inhibition by MTT assay
- Assay type: cell-based
- CONDITION_SUMMARY: PANC-1 cells
Listed here: items and their measured GI50.

Study these solved cases before continuing.
1) CCCCCCCCCCCn1c(SCCCn2cnc3sc4c(c3c2=O)CCCC4)nc(-c2cc(OC)c(OC)c(OC)c2)c(C#N)c1=O    > 100 µg/mL
2) COc1cc(-c2nc(SCCCn3cnc4sc5c(c4c3=O)CCCC5)n(S(=O)(=O)c3ccc(C)cc3)c(=O)c2C#N)cc(OC)c1OC    > 100 µg/mL
3) CCCCCCc1cc2c(=O)n(CCSc3nc(-c4cc(OC)c(OC)c(OC)c4)c(C#N)c(=O)[nH]3)cnc2s1    36.5 µg/mL

GI50 lookup needed for Cc1ccc(-c2nc(S)nc(O)c2C#N)cc1 , thanks.
> 100 µg/mL

// same read-out, input: CC(=O)O[C@H]1C(=O)[C@@]2(C)[C@H]([C@H](OC(=O)c3ccccc3)[C@]3(O)C[C@H](OC(=O)[C@H](O)[C@@H](NC(=O)c4ccccc4)c4ccccc4)C(C)=C1C3(C)C)[C@]1(OC(C)=O)CO[C@@H]1C[C@@H]2O [PACLITAXEL]
0.128 µg/mL

// same read-out, input: CCCCCCCc1cc2c(=O)n(CCCSc3nc(-c4cc(OC)c(OC)c(OC)c4)c(C#N)c(=O)[nH]3)cnc2s1
> 100 µg/mL

// same read-out, input: COc1cc(-c2nc(SCCCn3cnc4sc5c(c4c3=O)CCCC5)n(CCCn3cnc4sc5c(c4c3=O)CCCC5)c(=O)c2C#N)cc(OC)c1OC
> 100 µg/mL
